- Tested on: SALL4
- procedure.text: SALL4 degradation, Western blot in Tera-1 cells
- Assay type: cell-based, human
- measurement.setup: 4 h, 0.1 to 10 μM, SALL4/GAPDH, read-out: IC50 to lower SALL4 protein expression
experimental.readout: IC50 (nM)
Enter your answer as a number in nM; do not include the unit.

## Input Please report the measured IC50 for Nc1cccc2c1C(=O)N(C1CCC(=O)NC1=O)C2=O (stereo not shown) [Pom, Pomalidomide]
## Output 40

---

- procedure.text: mouse pharmacokinetics, plasma and brain, I.P.
- Format: in vivo
- measurement.setup: male, C57/BL6 J, ip, plasma, 2.65 mg/kg I.P.
experimental.readout: Tmax (min)
Enter your answer as a number in min; do not include the unit.

## Input Please report the measured Tmax for Nc1cccc2c1C(=S)N(C1CCC(=O)NC1=O)C2=O (stereo not shown) [3-MP, 3-monothiopomalidomide]
## Output 30

---

- procedure.text: mouse pharmacokinetics, plasma and brain, I.P.
- Format: in vivo
- measurement.setup: male, C57/BL6 J, ip, plasma, 26.5 mg/kg I.P.
experimental.readout: Cmax (ng/mL)
Enter your answer as a number in ng/mL; do not include the unit.

## Input Please report the measured Cmax for Nc1cccc2c1C(=S)N(C1CCC(=O)NC1=O)C2=O (stereo not shown) [3-MP, 3-monothiopomalidomide]
## Output 9580

---

- procedure.text: LPS-induced inflammation in IMG microglial cells (viability, nitrite, TNF-α)
- Assay type: cell-based, mouse
- measurement.setup: mouse, IMG immortalized microglial cells, IMG, 0.6 to 60 μM, LPS 10 ng/mL, MTS, read-out: cellular viability
experimental.readout: viability at 24 h

## Input Please report the measured viability at 24 h for Nc1cccc2c1C(=S)N(C1CCC(=O)NC1=O)C2=O (stereo not shown) [3-MP, 3-monothiopomalidomide]
## Output > 90%

---

- procedure.text: mouse pharmacokinetics, plasma and brain, I.P.
- Format: in vivo
- measurement.setup: male, C57/BL6 J, brain/plasma, ip, 2.65 mg/kg, across the two doses 26.47 and 2.65 mg/kg I.P., from AUCinfinity values, read-out: brain/plasma drug concentration ratio
experimental.readout: Kp

## Input Please report the measured Kp for Nc1cccc2c1C(=S)N(C1CCC(=O)NC1=O)C2=O (stereo not shown) [3-MP, 3-monothiopomalidomide]
## Output 0.44 to 0.47

---

- procedure.text: mouse pharmacokinetics, plasma and brain, I.P.
- Format: in vivo
- measurement.setup: male, C57/BL6 J, ip, plasma, 2.65 mg/kg I.P.
- Procedure: Mice were euthanized from 30 min to 18 h after dosing. Blood samples were collected into heparinized tubes, centrifuged (10,000g × 2 min at 4 °C), and plasma collected and immediately stored at − 80 °C. The brain was rapidly excised on wet ice; a sample of cerebral hemisphere was then removed and immediately frozen to − 80 °C.
experimental.readout: Cmax (ng/mL)
Enter your answer as a number in ng/mL; do not include the unit.

## Input Please report the measured Cmax for Nc1cccc2c1C(=S)N(C1CCC(=O)NC1=O)C2=O (stereo not shown) [3-MP, 3-monothiopomalidomide]
## Output 978

---

- procedure.text: mouse pharmacokinetics, plasma and brain, I.P.
- Format: in vivo
- measurement.setup: male, C57/BL6 J, ip, plasma, 26.5 mg/kg I.P.
experimental.readout: Tmax (h)
Enter your answer as a number in h; do not include the unit.

## Input Please report the measured Tmax for Nc1cccc2c1C(=S)N(C1CCC(=O)NC1=O)C2=O (stereo not shown) [3-MP, 3-monothiopomalidomide]
## Output 1
